Cited source: paper PMC5596342

test system: the molecule itself
experiment description: FRET or BRET; spectrum-based periplasmic FRET (mNG donor, mCh acceptor, spectral unmixing, acceptor FRET efficiency EfA) in E. coli grown in Gb1 at 28°C, induced with 15 µM IPTG, fixed with 2.8% formaldehyde and 0.04% glutaraldehyde, measured in PBS in a spectrofluorimeter; where indicated cells treated with 2 µg/ml amdinocillin or 1 µg/ml aztreonam during induction; cut-off for interaction EfA above 1.4%
reported property: EfA (acceptor FRET efficiency) (%)
Numbers only, in %.

INPUT: Need EfA (acceptor FRET efficiency), item PBP5 (D,D-carboxypeptidase, dacA), fluorescent-protein fusions mNG-PBP5 and mCh-PBP5 (enzyme, Escherichia coli, UniProt P0AEB2 30-403, looked up, PBP5 (dacA) of Escherichia coli; the FP is fused to the N terminus; construct details in Text S7 and S8; One molecule for the two differently tagged copies (mNG-PBP5 and mCh-PBP5), each chain carrying only one of the two fluorescent proteins; PDB 5J8X is a soluble form that lacks the C-terminal helix; also called FP-PBP5; source: E. coli, expressed from plasmid pSAV057 or pTHV037 (15 µM IPTG), in …) DDLNIKTMIPGVPQIDAESYILIDYNSGKVLAEQNADVRRDPASLTKMMTSYVIGQAMKAGKFKETDLVTIGNDAWATGNPVFKGSSLMFLKPGMQVPVSQLIRGINLQSGNDACVAMADFAAGSQDAFVGLMNSYVNALGLKNTHFQTVHGLDADGQYSSARDMALIGQALIRDVPNEYSIYKEKEFTFNGIRQLNRNGLLWDNSLNVDGIKTGHTDKAGYNLVASATEGQMRLISAVMGGRTFKGREAESKKLLTWGFRFFETVNPLKVGKEFASEPVWFGDSDRASLGVDKDVYLTIPRGRMKDLKASYVLNSSELHAPLQKNQVVGTINFQLDGKTIEQRPLVVLQEIPEGNFFGKIIDYIKLMFHHWFG
OUTPUT: 2
